Assignment: determine reported pIC50 for the given compounds.
- measurement.target: LRRK2 G2019S (Homo sapiens, UniProt Q5S007, G2019S)
- Sequence (Q5S007 970-2527 G2019S): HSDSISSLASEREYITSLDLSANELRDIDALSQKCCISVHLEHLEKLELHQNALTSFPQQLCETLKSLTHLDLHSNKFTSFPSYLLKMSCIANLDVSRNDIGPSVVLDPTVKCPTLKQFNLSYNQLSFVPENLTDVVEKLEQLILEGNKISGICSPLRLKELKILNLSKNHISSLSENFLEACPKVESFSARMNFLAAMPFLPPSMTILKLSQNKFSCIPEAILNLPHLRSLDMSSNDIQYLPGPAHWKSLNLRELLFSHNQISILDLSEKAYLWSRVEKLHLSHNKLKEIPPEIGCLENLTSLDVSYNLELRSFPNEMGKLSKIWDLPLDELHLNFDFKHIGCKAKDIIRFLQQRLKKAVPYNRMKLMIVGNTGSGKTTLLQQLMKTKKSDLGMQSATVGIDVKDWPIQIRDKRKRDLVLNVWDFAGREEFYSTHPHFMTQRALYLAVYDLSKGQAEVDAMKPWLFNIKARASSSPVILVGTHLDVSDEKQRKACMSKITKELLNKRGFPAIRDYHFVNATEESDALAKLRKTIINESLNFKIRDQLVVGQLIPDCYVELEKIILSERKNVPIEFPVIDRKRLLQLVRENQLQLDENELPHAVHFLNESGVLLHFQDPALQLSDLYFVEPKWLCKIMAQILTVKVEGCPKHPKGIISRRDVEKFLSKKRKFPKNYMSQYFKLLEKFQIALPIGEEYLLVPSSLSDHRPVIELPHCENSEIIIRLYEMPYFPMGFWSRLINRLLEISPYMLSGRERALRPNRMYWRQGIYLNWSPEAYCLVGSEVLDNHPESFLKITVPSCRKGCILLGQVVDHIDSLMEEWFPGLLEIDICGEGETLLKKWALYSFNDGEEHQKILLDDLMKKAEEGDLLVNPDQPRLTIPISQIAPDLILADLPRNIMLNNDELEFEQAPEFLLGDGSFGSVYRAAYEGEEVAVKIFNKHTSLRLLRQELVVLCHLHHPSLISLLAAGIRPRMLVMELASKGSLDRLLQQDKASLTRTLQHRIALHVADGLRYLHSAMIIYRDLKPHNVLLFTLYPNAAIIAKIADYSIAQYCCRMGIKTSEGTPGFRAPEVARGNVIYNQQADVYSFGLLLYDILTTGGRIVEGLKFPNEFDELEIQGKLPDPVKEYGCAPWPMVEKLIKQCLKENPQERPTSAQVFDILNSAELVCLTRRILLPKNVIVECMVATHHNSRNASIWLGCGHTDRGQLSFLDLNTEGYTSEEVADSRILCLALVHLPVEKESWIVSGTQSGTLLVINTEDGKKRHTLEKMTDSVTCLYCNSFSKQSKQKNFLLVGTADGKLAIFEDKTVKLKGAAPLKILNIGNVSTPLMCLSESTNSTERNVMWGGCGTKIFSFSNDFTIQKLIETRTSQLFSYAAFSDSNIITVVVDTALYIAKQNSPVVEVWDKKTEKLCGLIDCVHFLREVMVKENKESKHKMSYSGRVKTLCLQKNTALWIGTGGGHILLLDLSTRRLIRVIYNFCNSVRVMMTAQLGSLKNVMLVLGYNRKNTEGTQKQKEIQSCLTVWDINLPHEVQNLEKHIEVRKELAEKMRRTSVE
- assay.details: LanthaScreen TR-FRET LRRK2 G2019S kinase activity assay
- conditions.used: 250 pM LRRK2 G2019S kinase (residues 970 to 2527), 1.3 mM ATP, 0.4 μM fluorescein-LRRKtide, 2 hours at 30° C.; logarithmic average
Scale note: pIC50 = -log10(concentration in M).

The recorded pIC50 for CCc1cccc(-c2ccnc3[nH]cc(C#N)c23)c1 is 6.60

Reported pIC50 ( Cc1cc(-c2ccnc3[nH]cc(C#N)c23)ccc1CN(C)C ) = 6.54

Item: Cc1cc(-c2ccnc3[nH]cc(C#N)c23)ccc1CN1CCOCC1 | pIC50: 7.11

Just so you know, measured pIC50 for N#Cc1c[nH]c2nccc(-c3ccsc3)c12 came out at 6.07

Lab note: measured pIC50 of Cc1cncc(-c2cc(Nc3nn(C)cc3C(F)(F)F)nc3[nH]cc(C#N)c23)c1 was 6.29

// pIC50 lookup, compound = N#Cc1c[nH]c2nc(Nc3ccccn3)cc(-c3ccccc3)c12 , result: 6.28

pIC50 in this record for Cc1cncc(-c2cc(Nc3ccn(C)n3)nc3[nH]cc(C#N)c23)c1 : 7.43

The reported value for Cc1cc(-c2cc(Nc3ccn(C)n3)nc3[nH]cc(C#N)c23)ccc1CN1CCOCC1 in terms of pIC50 is 9.00

Recorded result, N#Cc1c[nH]c2nccc(-c3ccn(CN4CCOCC4)c3)c12 , pIC50: 6.19

Briefly, pIC50 measured for Cc1cccc(-c2ccnc3[nH]cc(C#N)c23)c1 : 6.71

Lab note: measured pIC50 of Cn1cc(Nc2cc(-c3ccccc3)c3c(C#N)c[nH]c3n2)cn1 was 6.79

The compound identified as COc1cccc(-c2ccnc3[nH]cc(C#N)c23)c1 registered its pIC50 at 6.70

// pIC50 lookup, compound = Cc1cc(-c2cc(Nc3nn(C)cc3C)nc3[nH]cc(C#N)c23)ccn1 , result: 6.97

Noted for Cn1ccc(Nc2cc(-c3ccccc3)c3c(C#N)c[nH]c3n2)n1 : its pIC50 reads 7.24

Briefly, pIC50 measured for N#Cc1c[nH]c2nccc(-c3ccc(CN4CCOCC4)cc3)c12 : 5.88

compound Cc1cccc(-c2cc(Nc3nn(C)cc3C(F)(F)F)nc3[nH]cc(C#N)c23)n1 , pIC50 observed: 6.24

Form field pIC50, entry N#Cc1c[nH]c2nc(N)cc(-c3ccccc3)c12 : 6.62

Data point: Cc1cccc(-c2cc(N)nc3[nH]cc(C#N)c23)c1 ; pIC50 = 7.77

###

- measurement.target: LRRK2 G2019S (Homo sapiens, UniProt Q5S007, G2019S)
- assay.details: LanthaScreen TR-FRET LRRK2 G2019S kinase activity assay
- conditions.used: 250 pM LRRK2 G2019S kinase (residues 970 to 2527), 1.3 mM ATP, 0.4 μM fluorescein-LRRKtide, 2 hours at 30° C.; logarithmic average
measured.metric: pIC50
Here pIC50 is given on a logarithmic scale as minus log10 of the concentration in mol/L.

For Cc1cccc(-c2cc(Nc3ccn(C)n3)nc3[nH]cc(C#N)c23)c1 the compound record lists pIC50 as 8.70

Notebook: COc1cc(-c2ccnc3[nH]cc(C#N)c23)ccc1CN1CCOCC1 , pIC50 read as 6.81

// sample Cc1cccc(-c2cc(Nc3nn(C)cc3C)nc3[nH]cc(C#N)c23)n1 , its pIC50 was 7.30

response.value for Cc1ccnc(-c2cc(Nc3nn(C)cc3Cl)nc3[nH]cc(C#N)c23)c1 (field: pIC50) = 6.67

pIC50 reading for CCc1cc(-c2ccnc3[nH]cc(C#N)c23)ccc1CN1CCOCC1 : 7.59
